Origin of the recorded values: patent US11999727B2

This listing pairs compounds with measured IC50.
target: PRMT5 (Homo sapiens); construct: purchased Viva (custom protein); experiment: PRMT5 biochemical IC50 assay with MTA as cofactor; settings: PRMT5, MTA as cofactor; read-out: MTA IC50

>  <Compound>
CCc1cc(NC(=O)C(=O)N2C[C@H](C)CC[C@H]2c2ccccc2)cnc1N (single isomer, unassigned)

>  <IC50>
< 50 nM

$$$$

Query: Would you mind telling me what IC50 value was observed for COc1cc([C@@H]2CC[C@@H](C)CN2C(=O)C(=O)Nc2cncc(C(N)=O)c2)ccn1 (racemic) [Compound 225] ?
Result: 50 to 500 nM

Query: Would you mind telling me what IC50 value was observed for CNc1ccc([C@@H]2CC[C@@H](C)CN2C(=O)C(=O)Nc2cnc(N)c(C)c2)cn1 (single isomer, unassigned) ?
Result: < 50 nM

====

biological target: PRMT5 (Homo sapiens); construct: purchased Viva (custom protein); test: PRMT5 biochemical IC50 assay with no cofactor; conditions: PRMT5, no cofactor; read-out: No Cofactor/rel IC50
pIC50: −log10 of the molar value.
Measurement label: pIC50

Example entries and their recorded answers appear below.
>  <Molecule>
CCc1cc(NC(=O)C(=O)N2C[C@@H](C)CC[C@@H]2c2ccc3sc(NC)nc3c2)cnc1N (single isomer, unassigned)

>  <Measured on>
PRMT5 (Homo sapiens)

>  <pIC50>
> 7.30

$$$$
>  <Molecule>
Cc1ccc([C@H]2CC[C@H](C)CN2C(=O)C(=O)Nc2cnc(N)c(C)c2)cn1 (single isomer, unassigned)

>  <Measured on>
PRMT5 (Homo sapiens)

>  <pIC50>
< 6.30

$$$$
>  <Molecule>
NC(=O)c1cncc(NC(=O)C(=O)N2C[C@@H](CC(F)(F)F)CC[C@@H]2c2ccccc2)c1 (racemic)

>  <Measured on>
PRMT5 (Homo sapiens)

>  <pIC50>
< 6.30

$$$$
>  <Molecule>
COc1ncc(NC(=O)C(=O)N2C[C@H](C)CC[C@H]2c2cc3[nH]ncc3s2)cc1C(N)=O (single isomer, unassigned)

>  <Measured on>
PRMT5 (Homo sapiens)

>  <pIC50>
< 6.30

$$$$
>  <Molecule>
C[C@H]1CC[C@H](c2ccc(C(N)=O)s2)N(C(=O)C(=O)Nc2cncc(C(N)=O)c2)C1 (single isomer, unassigned)

>  <Measured on>
PRMT5 (Homo sapiens)

>  <pIC50>
< 6.30

$$$$

Query: Would you mind telling me what pIC50 value was observed for CO[C@@H]1C[C@@H](c2ccc3scnc3c2)N(C(=O)C(=O)Nc2cncc(C(N)=O)c2)C[C@@H]1C (single isomer, unassigned) ?
Result: > 7.30

Query: Would you mind telling me what pIC50 value was observed for Cc1ncc(NC(=O)C(=O)N2C[C@H](C)CC[C@H]2c2ccc(F)cc2)cc1Cl (racemic) ?
Result: 6.30 to 7.30

Query: Would you mind telling me what pIC50 value was observed for COc1ncc(NC(=O)C(=O)N2C[C@H](C)CC[C@H]2c2ccc(O)cc2)cc1C(N)=O (single isomer, unassigned) ?
Result: < 6.30

Query: Would you mind telling me what pIC50 value was observed for COc1ccc([C@@H]2CC[C@@H](C)CN2C(=O)C(=O)Nc2cncc(C(N)=O)c2)cc1C#N (racemic) ?
Result: 6.30 to 7.30

Query: Would you mind telling me what pIC50 value was observed for Cc1cc(NC(=O)C(=O)N2C[C@H](C)CC[C@H]2c2ccc(NC3COC3)cc2)cnc1N (racemic) ?
Result: 6.30 to 7.30

Query: Would you mind telling me what pIC50 value was observed for CNC(=O)N1CCCC([C@@H]2CC[C@@H](C)CN2C(=O)C(=O)Nc2cnc(N)c(C)c2)C1 (mixture of isomers) ?
Result: 6.30 to 7.30

Query: Would you mind telling me what pIC50 value was observed for CCc1cc(NC(=O)C(=O)N2C[C@H](C)CC[C@H]2c2ccc(NS(C)(=O)=O)cc2)cnc1N (single isomer, unassigned) ?
Result: < 6.30

Query: Would you mind telling me what pIC50 value was observed for Cc1cc(NC(=O)C(=O)N2C[C@@H](C)CC[C@@H]2c2ccc3sc(-c4cnn(C)c4)nc3c2)cnc1N (racemic) ?
Result: > 7.30

====

target: PRMT5 (Homo sapiens, UniProt O14744); construct: purchased Viva (custom protein); assay: PRMT5 biochemical IC50 assay with SAM as cofactor; details: PRMT5, SAM as cofactor; read-out: SAM IC50
Sequence (O14744 whole entry): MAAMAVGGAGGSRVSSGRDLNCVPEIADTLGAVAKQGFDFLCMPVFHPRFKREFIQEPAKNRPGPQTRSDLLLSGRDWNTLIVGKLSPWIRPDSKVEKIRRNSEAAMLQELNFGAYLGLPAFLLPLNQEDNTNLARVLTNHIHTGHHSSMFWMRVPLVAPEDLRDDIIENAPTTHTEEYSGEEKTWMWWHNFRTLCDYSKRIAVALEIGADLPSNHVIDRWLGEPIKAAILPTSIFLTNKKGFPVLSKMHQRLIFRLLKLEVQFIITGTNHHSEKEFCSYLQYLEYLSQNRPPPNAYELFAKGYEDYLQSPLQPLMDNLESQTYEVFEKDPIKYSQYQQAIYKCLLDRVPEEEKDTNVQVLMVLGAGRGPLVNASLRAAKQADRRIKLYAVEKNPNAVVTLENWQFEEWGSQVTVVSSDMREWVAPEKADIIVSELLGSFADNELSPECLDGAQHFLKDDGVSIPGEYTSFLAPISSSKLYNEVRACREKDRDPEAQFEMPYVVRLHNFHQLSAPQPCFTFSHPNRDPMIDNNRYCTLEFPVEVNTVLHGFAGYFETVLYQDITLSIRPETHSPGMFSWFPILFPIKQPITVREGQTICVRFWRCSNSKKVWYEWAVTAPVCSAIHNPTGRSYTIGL
Sequence (Q9BQA1 whole entry partner): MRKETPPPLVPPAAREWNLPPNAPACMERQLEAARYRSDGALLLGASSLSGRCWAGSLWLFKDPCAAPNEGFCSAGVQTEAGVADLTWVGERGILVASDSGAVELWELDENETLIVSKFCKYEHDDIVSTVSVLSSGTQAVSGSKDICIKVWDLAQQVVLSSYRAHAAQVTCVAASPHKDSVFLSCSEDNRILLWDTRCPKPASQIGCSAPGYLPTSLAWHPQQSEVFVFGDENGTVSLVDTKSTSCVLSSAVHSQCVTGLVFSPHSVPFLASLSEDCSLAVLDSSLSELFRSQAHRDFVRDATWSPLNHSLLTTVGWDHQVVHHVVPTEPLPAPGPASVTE
Measurement label: IC50

>  <Compound>
Cc1cc(NC(=O)C(=O)N2CCCC[C@@H]2c2ccncc2)cnc1N (single isomer, unassigned) [Compound 50]

>  <Measurement label>
IC50

>  <Result>
50 to 500 nM

$$$$
>  <Compound>
CC(=O)Nc1ccc([C@H]2CC[C@H](C)CN2C(=O)C(=O)Nc2cnc(N)c(C)c2)cn1 (single isomer, unassigned) [Compound 915]

>  <Measurement label>
IC50

>  <Result>
50 to 500 nM

$$$$
>  <Compound>
Cc1ccc([C@@H]2CC[C@@H](C)CN2C(=O)C(=O)Nc2cncc(C(N)=O)c2)cc1F (racemic) [Compound 162]

>  <Measurement label>
IC50

>  <Result>
50 to 500 nM

$$$$

Query: Would you mind telling me what IC50 value was observed for CC[C@@H]1CC[C@@H](c2ccccc2)N(C(=O)C(=O)Nc2cncc(C(N)=O)c2)C1 (single isomer, unassigned) [Compound 576] ?
Result: > 500 nM

Query: Would you mind telling me what IC50 value was observed for C[C@]1(F)CC[C@@H](c2ccccc2)N(C(=O)C(=O)Nc2cncc(C(N)=O)c2)C1 (single isomer, unassigned) [Compound 798] ?
Result: > 500 nM

Query: Would you mind telling me what IC50 value was observed for C[C@@H]1CC[C@@H](c2ccc3cncn3c2)N(C(=O)C(=O)Nc2cnc(N)c(C3CC3)c2)C1 (single isomer, unassigned) [Compound 1336] ?
Result: > 500 nM

====

tested on: HAP1 MTAP-deleted cell line; assay: SDMA in-cell western assay, HAP1 MTAP-deleted; type: cell-based; conditions: Homo sapiens, HAP1, SDMA in-cell western, HAP1 MTAP-deleted; read-out: HAP 1 MTAP deleted IC50
pIC50: −log10 of the molar value.
Measurement label: pIC50

>  <Molecule>
C[C@H]1CC[C@H](c2ccc3[nH]ncc3c2)N(C(=O)C(=O)Nc2cnc(N)c(C3CC3)c2)C1 (single isomer, unassigned)

>  <pIC50>
> 7.00

$$$$
>  <Molecule>
CCN1CCC(c2nc3cc([C@H]4CC[C@H](C)CN4C(=O)C(=O)Nc4cnc(N)c(C)c4)ccc3s2)CC1

>  <pIC50>
> 7.00

$$$$

Query: Would you mind telling me what pIC50 value was observed for COc1ncc(NC(=O)C(=O)N2C[C@@H](C)CC[C@@H]2c2ccc3sc(C4CN(C)C4)nc3c2)cc1C(N)=O ?
Result: > 7.00

====

biological target: PRMT5 (Homo sapiens, UniProt O14744); construct: purchased Viva (custom protein); experiment: PRMT5 biochemical IC50 assay with SAM as cofactor; details: PRMT5, SAM as cofactor; read-out: SAM IC50
This listing pairs compounds with measured IC50.

Example entries and their recorded answers appear below.
>  <Compound>
C[C@@H]1CC[C@@H](c2ccc3c(c2)CCO3)N(C(=O)C(=O)Nc2cncc(C(N)=O)c2)C1 (racemic)

>  <IC50>
> 500 nM

$$$$
>  <Compound>
Cc1cc(NC(=O)C(=O)N2C[C@H](C)CC[C@H]2c2cccc3[nH]ccc23)cnc1N (single isomer, unassigned)

>  <IC50>
50 to 500 nM

$$$$
>  <Compound>
Cc1cc(NC(=O)C(=O)N2C[C@H](C)CC[C@H]2c2ccc(N)cc2)cnc1N (single isomer, unassigned)

>  <IC50>
50 to 500 nM

$$$$
>  <Compound>
Cc1cc(NC(=O)C(=O)N2C[C@@H](C)CC[C@@H]2c2cccs2)cnc1N (single isomer, unassigned)

>  <IC50>
> 500 nM

$$$$
>  <Compound>
Cc1cc(NC(=O)C(=O)N2C[C@@H](C)[C@@H](OC(C)C)C[C@@H]2c2ccccc2)cnc1N (single isomer, unassigned)

>  <IC50>
> 500 nM

$$$$
>  <Compound>
Cc1cc(NC(=O)C(=O)N2C[C@H](C)CC[C@H]2c2ccc(CC(F)(F)F)cc2)cnc1N (racemic)

>  <IC50>
50 to 500 nM

$$$$
>  <Compound>
CCc1cc(NC(=O)C(=O)N2C[C@@H](C)CC[C@@H]2c2ccc3sc(CCN4CCOCC4)nc3c2)cnc1N

>  <IC50>
< 50 nM

$$$$
>  <Compound>
COc1ncc(NC(=O)C(=O)N2C[C@@H](C)CC[C@@H]2c2ccc3sc(C4(CN(C)C)COC4)nc3c2)cc1C(N)=O

>  <IC50>
< 50 nM

$$$$
>  <Compound>
COc1ncc(NC(=O)C(=O)N2C[C@H](C)CC[C@@H]2C2CCCC2)cc1C(N)=O (single isomer, unassigned)

>  <IC50>
50 to 500 nM

$$$$
>  <Compound>
Cc1cc(NC(=O)C(=O)N2C[C@H](C)CC[C@H]2c2ccc(S(C)(=O)=O)cc2)cnc1C (racemic)

>  <IC50>
> 500 nM

$$$$

Query: Would you mind telling me what IC50 value was observed for Cc1cc(NC(=O)C(=O)N2C[C@H](C)CC[C@H]2c2ccc3[nH]c(=O)ccc3c2)cnc1N (single isomer, unassigned) [Compound 763] ?
Result: > 500 nM

Query: Would you mind telling me what IC50 value was observed for Cc1cncc(NC(=O)C(=O)N2C[C@H](C)CC[C@H]2c2ccc3c(c2)CCCC3)c1 (racemic) ?
Result: > 500 nM
